Source: patent US12486253B2

Item-by-item account of Emax
# Assayed Target: BRAF V600E (Homo sapiens, UniProt P15056, V600E)
# Sequence (P15056 whole entry V600E): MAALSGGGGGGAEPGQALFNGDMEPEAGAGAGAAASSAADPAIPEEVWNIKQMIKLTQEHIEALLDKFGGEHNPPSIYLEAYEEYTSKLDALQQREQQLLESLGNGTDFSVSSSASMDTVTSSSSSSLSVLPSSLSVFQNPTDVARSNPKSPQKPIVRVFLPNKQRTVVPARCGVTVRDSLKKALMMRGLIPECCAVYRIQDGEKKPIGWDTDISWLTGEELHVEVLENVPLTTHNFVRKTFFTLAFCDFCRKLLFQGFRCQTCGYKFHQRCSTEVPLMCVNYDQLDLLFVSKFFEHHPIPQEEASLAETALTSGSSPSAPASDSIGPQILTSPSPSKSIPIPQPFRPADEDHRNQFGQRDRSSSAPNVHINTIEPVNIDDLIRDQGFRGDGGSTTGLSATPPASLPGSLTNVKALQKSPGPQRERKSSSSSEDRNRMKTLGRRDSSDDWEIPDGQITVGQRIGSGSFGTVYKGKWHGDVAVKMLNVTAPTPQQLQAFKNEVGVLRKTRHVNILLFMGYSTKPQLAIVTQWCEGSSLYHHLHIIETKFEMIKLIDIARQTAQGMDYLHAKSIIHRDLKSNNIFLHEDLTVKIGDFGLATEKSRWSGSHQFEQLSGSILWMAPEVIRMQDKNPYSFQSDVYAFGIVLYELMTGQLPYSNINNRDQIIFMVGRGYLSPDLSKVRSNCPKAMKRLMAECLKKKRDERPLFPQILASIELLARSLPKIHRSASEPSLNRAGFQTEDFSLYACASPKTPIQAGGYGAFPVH
# Test Summary: HiBiT cellular BRAF^V600E degradation assay
# Type: cell-based
# Condition Context: A375.10 cells, 24 h; residual protein remaining in the cell; read-out: HiBit 24 h Emax
Quantity Name: Emax

* CCN(C)S(=O)(=O)Nc1ccc(F)c(Oc2ccc3ncn([C@H]4CCC5(CCN(C(=O)CN6CCC(c7ccc8c(C9CCC(=O)NC9=O)nn(C)c8c7)CC6)CC5)C4)c(=O)c3c2)c1Cl (stereo partly shown) | 23.5%
* CCN(C)S(=O)(=O)Nc1ccc(F)c(Oc2ccc3ncn([C@H]4COC5(CCN(C(=O)CN6CCC(c7ccc(NC8CCC(=O)NC8=O)cc7F)C(F)(F)C6)CC5)C4)c(=O)c3c2)c1C#N (stereo partly shown) | 13.9%
* O=C1CC[C@H](Nc2ccc(C3CCN(CC(=O)N4CCN(c5ncc(-n6cnc7ccc(Oc8c(F)ccc(NS(=O)(=O)C9CCCC9)c8F)cc7c6=O)cn5)CC4)CC3)c(F)c2)C(=O)N1 | 10.7%
* CCN(C)S(=O)(=O)Nc1ccc(F)c(Oc2ccc3ncn(CCN4CCN(C(=O)CN5CCC(c6ccc(NC7CCC(=O)NC7=O)cc6F)CC5)CC4)c(=O)c3c2)c1C#N (stereo not shown) | 10%
* CCN(C)S(=O)(=O)Nc1ccc(F)c(Oc2ccc3ncn([C@H]4COC5(CCN(C(=O)CN6CC[C@H](c7cc8c(cc7F)c(N7CCC(=O)NC7=O)nn8C)C(F)(F)C6)CC5)C4)c(=O)c3c2)c1C#N (single isomer, unassigned) | 11.3%
* CCN(C)S(=O)(=O)Nc1ccc(F)c(Oc2ccc3ncn(CCCC4(C)CCN(C(=O)CN5CCC(c6ccc(NC7CCC(=O)NC7=O)cc6F)CC5)CC4)c(=O)c3c2)c1C#N (stereo not shown) | 8.33%
* N#Cc1c(NS(=O)(=O)C2CCCC2)ccc(F)c1Oc1ccc2ncn(CCC3CCN(C(=O)CN4CCC(c5ccc(NC6CCC(=O)NC6=O)cc5)CC4)CC3)c(=O)c2c1 (stereo not shown) | 24%
* CCN(C)S(=O)(=O)Nc1ccc(F)c(Oc2ccc3ncn([C@H]4COC5(CCN(C(=O)CN6CCC(c7ccc(NC8CCC(=O)NC8=O)cc7F)CC6)CC5)C4)c(=O)c3c2F)c1C#N (stereo partly shown) | 8.63%
* CCN(C)S(=O)(=O)Nc1ccc(F)c(Oc2ccc3ncc(OCC4CCN(C(=O)CN5CCC(c6ccc(NC7CCC(=O)NC7=O)cc6F)CC5)CC4)nc3c2)c1C#N (stereo not shown) | 10.1%
* CCN(C)S(=O)(=O)Nc1ccc(F)c(Oc2ccc3ncn(CCCC4(F)CCN(C(=O)CN5CCC(c6ccc(NC7CCC(=O)NC7=O)cc6F)CC5)CC4)c(=O)c3c2)c1C#N (stereo not shown) | 7.29%
* CCN(C)S(=O)(=O)Nc1ccc(F)c(Oc2ccc3ncn(C4COC5(CCN(C(=O)CN6CCC(c7ccc(NC8CCC(=O)NC8=O)cc7F)CC6)CC5)C4)c(=O)c3c2C)c1C#N (stereo not shown) | 10.4%
* CCN(C)S(=O)(=O)Nc1ccc(F)c(Oc2ccc3ncn([C@@H]4CCC5(CCN(C(=O)CN6CCC(c7ccc(N[C@@H]8CCC(=O)NC8=O)cc7F)CC6)CC5)C4)c(=O)c3c2)c1C#N | 14.4%
* Cn1nc(N2CCC(=O)NC2=O)c2cc(F)c(N3CCC(O)(CC(=O)N4CCC5(CC4)C[C@@H](n4cnc6ccc(Oc7c(F)ccc(NS(=O)(=O)N8CCCC8)c7C#N)cc6c4=O)CO5)CC3)cc21 | 26.3%
* CCN(C)S(=O)(=O)Nc1ccc(F)c(Oc2ccc3ncn(-c4cnc(N5CCN(C(=O)CN6CCC(c7ccc(N[C@H]8CCC(=O)NC8=O)cc7F)CC6)CC5)nc4)c(=O)c3c2O)c1C#N | 16.9%
* CCN(C)S(=O)(=O)Nc1ccc(F)c(Oc2ccc3ncn(CC4CC5(CCN(C(=O)CN6CCC(c7ccc(NC8CCC(=O)NC8=O)cc7F)CC6)CC5)C4)c(=O)c3c2)c1C#N (stereo not shown) | 11.6%
* CCN(C)S(=O)(=O)Nc1ccc(F)c(Oc2ccc3ncn(-c4cnn(C5CCN(CC(=O)N6CCC(c7ccc(NC8CCC(=O)NC8=O)cc7)CC6)CC5)c4)c(=O)c3c2)c1C#N (stereo not shown) | 19.6%
* N#Cc1c(NS(=O)(=O)N2CCC(F)(F)C2)ccc(F)c1Oc1ccc2ncn(-c3cnc(N4CCN(C(=O)CN5CCC(c6ccc(N[C@@H]7CCC(=O)NC7=O)cc6F)CC5)CC4)nc3)c(=O)c2c1 | 14%
* CCN(C)S(=O)(=O)Nc1ccc(F)c(Oc2ccc3ncn([C@H]4COC5(CCN(C(=O)CN6CCC(c7ccc(NC8CCC(=O)NC8=O)cc7F)CC6)CC5)C4)c(=O)c3c2)c1C#N (single isomer, unassigned) | 10.8%
* CCN(C)S(=O)(=O)Nc1ccc(F)c(Oc2ccc3ncn(-c4cnc(N5CCN(C(=O)CN6CCC(c7ccc(N[C@@H]8CCC(=O)NC8=O)cc7F)CC6)CC5)nc4)c(=O)c3c2O)c1C#N | 25.1%

###

# Assayed Target: BRAF V600E (Homo sapiens, UniProt P15056, V600E)
# Test Summary: HiBiT cellular BRAF^V600E degradation assay
# Assay type: cell-based
# Condition Context: A375.10 cells, 24 h; concentration at which 50% of total cellular BRAF^V600E is degraded
Output criterion met for records whose DC50 is lower than 30 nM, criterion not met for records at or above 30 nM.

* CCN(C)S(=O)(=O)Nc1ccc(F)c(Oc2ccc3ncn(-c4cnc(N5CCN(C(=O)CN6CCC(c7c(F)cc(NC8CCC(=O)NC8=O)cc7OC)CC6)CC5)nc4)c(=O)c3c2)c1C#N (centres unmarked) [Example 89] | criterion not met
* Cn1nc(N2CCC(=O)NC2=O)c2cc(F)c(N3CCC(O)(CC(=O)N4CCC5(CC4)C[C@@H](n4cnc6ccc(Oc7c(F)ccc(NS(=O)(=O)N8CC9CC9C8)c7C#N)cc6c4=O)CO5)CC3)cc21 (some centres unmarked) [Example 194] | criterion not met
* CN(CC(F)F)S(=O)(=O)Nc1ccc(F)c(Oc2ccc3ncn(-c4cnc(N5CCN(C(=O)CN6CCC(c7ccc(N[C@H]8CCC(=O)NC8=O)cc7F)CC6)CC5)nc4)c(=O)c3c2)c1C#N [Example 122] | criterion met
* CO[C@@H]1CCN(S(=O)(=O)Nc2ccc(F)c(Oc3ccc4ncn(-c5cnc(N6CCN(C(=O)CN7CCC(c8ccc(N[C@@H]9CCC(=O)NC9=O)cc8F)CC7)CC6)nc5)c(=O)c4c3)c2C#N)C1 [Example 97] | criterion met

###

# Assayed Target: BRAF V600E (Homo sapiens, UniProt P15056, V600E)
# Test Summary: HiBiT cellular BRAF^V600E degradation assay
# Format: cell-based
# Condition Context: A375.10 cells, 24 h; concentration at which 50% of total cellular BRAF^V600E is degraded
Quantity Name: DC50 (nM)

• CCN(C)S(=O)(=O)Nc1ccc(F)c(Oc2ccc3ncn([C@H]4COC5(CCN(C(=O)CN6CCC(c7ccc(NC8CCC(=O)NC8=O)c(F)c7)CC6)CC5)C4)c(=O)c3c2)c1C#N (some centres unmarked) = 15.4
• CCN(C)S(=O)(=O)Nc1ccc(F)c(Oc2ccc3ncn(C4CCC5(CCN(C(=O)CN6CCC(c7ccc(NC8CCC(=O)NC8=O)cc7F)CC6)CC5)C4)c(=O)c3c2F)c1C#N (centres unmarked) = 20.7
• CCN(C)S(=O)(=O)Nc1ccc(F)c(Oc2ccc3ncn(CCCC4CCN(C(=O)CN5CCC(c6ccc(NC7CCC(=O)NC7=O)cc6F)CC5)CC4)c(=O)c3c2)c1C#N (centres unmarked) = 22.7
• CCN(C)S(=O)(=O)Nc1ccc(F)c(Oc2ccc3ncn(-c4cnc(N5CCN(C(=O)CN6CCC(c7ccc(NC8CCC(=O)NC8=O)cc7F)CC6)CC5)nc4)c(=O)c3c2N)c1C#N (stereo in doubt) = 15
• CC(C)S(=O)(=O)Nc1ccc(F)c(Oc2ccc3ncn([C@H]4COC5(CCN(C(=O)CC6(O)CCN(c7cc8c(cc7F)c(N7CCC(=O)NC7=O)nn8C)CC6)CC5)C4)c(=O)c3c2)c1C#N = 23.5

###

# Assayed Target: BRAF V600E (Homo sapiens, UniProt P15056, V600E)
# Test Summary: HiBiT cellular BRAF^V600E degradation assay
# Assay type: cell-based
# Condition Context: read-out: HiBit 24 h Emax
Quantity Name: Emax (%)

• CCN(C)S(=O)(=O)Nc1ccc(F)c(Oc2ccc3ncn([C@H]4CCC5(CCN(C(=O)CN6CCC(c7cc(F)c(NC8CCC(=O)NC8=O)cc7F)CC6)CC5)C4)c(=O)c3c2)c1C#N (some centres unmarked) = 8.05
• CCN(C)S(=O)(=O)Nc1ccc(F)c(Oc2ccc3ncn(-c4cnn(C5CCN(C(=O)CN6CCC(c7ccc(NC8CCC(=O)NC8=O)c(F)c7)CC6)CC5)c4)c(=O)c3c2)c1C#N (centres unmarked) = 20.6
• CO[C@@H]1CCN(S(=O)(=O)Nc2ccc(F)c(Oc3ccc4ncn(-c5cnc(N6CCN(C(=O)CN7CCC(c8ccc(N[C@H]9CCC(=O)NC9=O)cc8F)CC7)CC6)nc5)c(=O)c4c3)c2C#N)C1 = 8.43
• CCN(C)S(=O)(=O)Nc1ccc(F)c(Oc2ccc3ncn(-c4cnc(N5CCN(C(=O)CN6CCC(c7ccc(N[C@H]8CCC(=O)NC8=O)cc7F)CC6)CC5)nc4)c(=O)c3c2)c1C#N = 7.37
• CCN(C)S(=O)(=O)Nc1ccc(F)c(Oc2ccc3ncn(C4COC5(CCN(C(=O)NC6CCN(c7ccc(NC8CCC(=O)NC8=O)cc7F)CC6)CC5)C4)c(=O)c3c2)c1C#N (centres unmarked) = 11.4
